System: NCI-H1666
Assay: relative viability (nuclei count vs DMSO), 5 days (fraction); higher = more cells survive
Settings: first compound 0.6325 µM
Collected relative viability values appear next to each entry.
Please reply with the value in numeric form only.

relative viability for NCI-H1666 with input CN1CCN(CCOc2cc(OC3CCOCC3)c3c(Nc4c(Cl)ccc5c4OCO5)ncnc3c2)CC1 [Saracatinib] + O=C(c1cc(Cc2n[nH]c(=O)c3ccccc23)ccc1F)N1CCN(C(=O)C2CC2)CC1 [Olaparib] (partner 8 µM) equals 0.974

Hey, NCI-H1666 data for CN1CCN(CCOc2cc(OC3CCOCC3)c3c(Nc4c(Cl)ccc5c4OCO5)ncnc3c2)CC1 [Saracatinib] + COc1cc2c(Oc3ccc(NC(=O)C4(C(=O)Nc5ccc(F)cc5)CC4)cc3F)ccnc2cc1OCCCN1CCOCC1 [Foretinib] (partner 0.25 µM) : relative viability came out at 1.27

Summary: Cc1csc(=NC2CCCCC2)n1/N=C/c1ccc(O)c(O)c1O [MIM1] + Nc1ncn([C@H]2C[C@H](O)[C@@H](CO)O2)c(=O)n1 [Decitabine] (partner 2 µM) , NCI-H1666, relative viability = 0.741

Summary: Cc1csc(=NC2CCCCC2)n1/N=C/c1ccc(O)c(O)c1O [MIM1] + CC(=O)Nc1cccc(-n2c(=O)n(C3CC3)c(=O)c3c(Nc4ccc(I)cc4F)n(C)c(=O)c(C)c32)c1 [Trametinib] (partner 0.02 µM) , NCI-H1666, relative viability = 0.833

Measured on NCI-H1666, CN1CCN(CCOc2cc(OC3CCOCC3)c3c(Nc4c(Cl)ccc5c4OCO5)ncnc3c2)CC1 [Saracatinib] + CC1(C)CCC(c2ccc(Cl)cc2)=C(CN2CCN(c3ccc(C(=O)NS(=O)(=O)c4ccc(N[C@H](CCN5CCOCC5)CSc5ccccc5)c(S(=O)(=O)C(F)(F)F)c4)cc3)CC2)C1 [Navitoclax] (partner 0.5 µM) has a documented relative viability of 1.06

# Cc1csc(=NC2CCCCC2)n1/N=C/c1ccc(O)c(O)c1O [MIM1] + O=C(CCCCCCC(=O)Nc1ccccc1)NO [Vorinostat] (partner 1 µM) with NCI-H1666: relative viability is 0.922

Origin of values: the supplement of paper PMC10307832
